IC50 values, listed per item
System: DMS-114 (FGFR1 overexpression) cells
Experiment: cell proliferation assay (CellTiterGlo), DMS-114 cells
Type: cell-based
Settings: Homo sapiens, DMS-114, 72 h
PROPERTY MEASURED: IC50

MOLECULE | PROPERTY MEASURED | RESULT
Cc1nc2ccc(Oc3ccc4ncc(-c5cnn(C6CC(N7CCC7)C6)c5)nc4c3Cl)cc2[nH]1 (stereo not drawn) | IC50 | ≥ 400 nM
COC1CN([C@H]2C[C@H](n3cc(-c4cnc5ccc(Oc6ccc7nc(C)[nH]c7c6)c(Cl)c5n4)cn3)C2)C1 | IC50 | ≥ 400 nM
Cc1nc2ccc(Oc3ccc4ncc(-c5cnn(CC6CC7CC6CN7CC(N)=O)c5)nc4c3Cl)cc2[nH]1 (stereo not drawn) | IC50 | 100 to 400 nM
Cc1nc2ccc(Oc3ccc4ncc(-c5cnn(C6CN(C)C6)c5)nc4c3Cl)cc2[nH]1 | IC50 | ≥ 400 nM
Cc1nc2ccc(Oc3ccc4ncc(-c5cnn(CC(=O)N6CCC(F)(F)C6)c5)nc4c3Cl)c(F)c2[nH]1 | IC50 | 100 to 400 nM
Cc1nc2ccc(Oc3ccc4ncc(-c5cnn(CC6CC(F)(F)C6)c5)nc4c3C3=CCOC3)cc2[nH]1 | IC50 | 100 to 400 nM
Cc1nc2ccc(Oc3ccc4ncc(-c5cnn(CC6CC(F)(F)C6)c5)nc4c3C3CCCOC3)cc2[nH]1 (stereo not drawn) | IC50 | ≥ 400 nM
Cc1nc2ccc(Oc3ccc4ncc(-c5cnn(CC6CC(F)(F)C6)c5)nc4c3C3=CCOC3(C)C)cc2[nH]1 | IC50 | 100 to 400 nM
Cc1nc2ccc(Oc3ccc4ncc(-c5cnn(CCC6CCNCC6)c5)nc4c3Cl)cc2[nH]1 | IC50 | ≥ 400 nM
Cc1nc2ccc(Oc3ccc4ncc(-c5cnn(CCN6CC(F)(F)C6)c5)nc4c3Cl)cc2[nH]1 | IC50 | ≥ 400 nM
Cc1nc2ccc(Oc3ccc4ncc(-c5cnn(CC6CC(F)(F)C6)c5)nc4c3NC(=O)CCCCl)cc2[nH]1 | IC50 | ≥ 400 nM
Cc1nc2ccc(Oc3ccc4ncc(-c5cnn(CC6(O)CC6)c5)nc4c3C3=CCOC3)c(F)c2[nH]1 | IC50 | 20 to 100 nM
Cc1nc2ccc(Oc3ccc4ncc(-c5cnn(C67CCN(CC6)C7)c5)nc4c3Cl)cc2[nH]1 | IC50 | ≥ 400 nM
CNC(=O)N1CCC(n2cc(-c3cnc4ccc(Oc5ccc6nc(C)[nH]c6c5)c(Cl)c4n3)cn2)CC1 | IC50 | ≥ 400 nM
Cc1nc2ccc(Oc3ccc4ncc(-c5cnn(C6CC7(CNC7)C6)c5)nc4c3Cl)cc2[nH]1 | IC50 | ≥ 400 nM

----------
Tested on: DMS-114 (FGFR1 overexpression) cells
Test: cell proliferation assay (CellTiterGlo), DMS-114 cells
Format: cell-based
Settings: Homo sapiens, DMS-114, 72 h

MOLECULE | IC50
COC1CCN(C(=O)Cn2cc(-c3cnc4ccc(Oc5ccc6nc(C)[nH]c6c5)c(Cl)c4n3)cn2)CC1 | ≥ 0.4 µM
Cc1nc2ccc(Oc3ccc4ncc(-c5cnn(CC(C)(C)O)c5)nc4c3Cl)c(F)c2[nH]1 | 0.1 to 0.4 µM
Cc1nc2ccc(Oc3ccc4ncc(-c5cnn(C[C@H]6C[C@@](C)(O)C6)c5)nc4c3Cl)c(F)c2[nH]1 | 0.02 to 0.1 µM
Cc1nc2ccc(Oc3ccc4ncc(-c5cnn(CCNCCO)c5)nc4c3Cl)cc2[nH]1 | ≥ 0.4 µM
Cc1nc2ccc(Oc3ccc4ncc(-c5cnn(C6CC7(CC(=O)C7)C6)c5)nc4c3Cl)cc2[nH]1 | ≥ 0.4 µM
Cc1nc2ccc(Oc3ccc4ncc(-c5cnn(Cc6ncc7n6CCOC7)c5)nc4c3Cl)c(F)c2[nH]1 | ≥ 0.4 µM
Cc1nc2ccc(Oc3ccc4ncc(-c5cnn(C6CCC(F)(F)C6)c5)nc4c3Cl)cc2[nH]1 (stereo not shown) | ≥ 0.4 µM

----------
System: DMS-114 (FGFR1 overexpression) cells
Experiment: cell proliferation assay (CellTiterGlo), DMS-114 cells
Type: cell-based
Details: Homo sapiens, DMS-114, 72 h
pIC50: −log10 of the molar value.
PROPERTY MEASURED: pIC50

COMPOUND | PROPERTY MEASURED | RESULT
CCS(=O)(=O)N1CC(CC#N)(n2cc(-c3cnc4ccc(Oc5ccc6nc(C)[nH]c6c5)c(Cl)c4n3)cn2)C1 [Compound 374] | pIC50 | ≤ 6.40
Cc1nc2ccc(Oc3ccc4ncc(-c5cnn(C[C@H]6CCN(C)C[C@H]6F)c5)nc4c3Cl)cc2[nH]1 [Compound 368] | pIC50 | 6.40 to 7.00
COCCN1CCC(n2cc(-c3cnc4ccc(Oc5ccc6nc(C)[nH]c6c5)c(Cl)c4n3)cn2)CC1 [Compound 316] | pIC50 | ≤ 6.40
Cc1nc2ccc(Oc3ccc4ncc(-c5cnn([C@H](C)CO)c5)nc4c3Cl)c(F)c2[nH]1 [Compound 107] | pIC50 | 6.40 to 7.00
Cc1nc2cc(Oc3ccc4ncc(-c5cnn(CC6(O)CCN(C7COC7)CC6)c5)nc4c3Cl)ccc2[nH]1 [Compound 248] | pIC50 | 6.40 to 7.00
Cc1nc2ccc(Oc3ccc4ncc(-c5cnn(CC6CN(C)CCO6)c5)nc4c3Cl)cc2[nH]1 (stereo not drawn) [Compound 271] | pIC50 | ≤ 6.40
Cc1nc2ccc(Oc3ccc4ncc(-c5cnn([C@H]6C[C@H](O)C6)c5)nc4c3Cl)c(F)c2[nH]1 [Compound 143] | pIC50 | ≤ 6.40
Cc1nc2ccc(Oc3ccc4ncc(-c5cnn([C@H]6CCN(C7COC7)C[C@@H]6F)c5)nc4c3Cl)cc2[nH]1 [Compound 360] | pIC50 | ≤ 6.40
Cc1nc2ccc(Oc3ccc4ncc(-c5cnn(C(C)(C)CC(N)=O)c5)nc4c3Cl)cc2[nH]1 [Compound 282] | pIC50 | ≤ 6.40
CCc1nc2cc(Oc3ccc4ncc(-c5cnn(CC6CC(F)(F)C6)c5)nc4c3Cl)ccc2[nH]1 [Compound 219] | pIC50 | ≤ 6.40
Cc1nc2ccc(Oc3ccc4ncc(-c5cnn(CC(=O)N6CC[C@@H](F)C6)c5)nc4c3Cl)cc2[nH]1 [Compound 283] | pIC50 | ≤ 6.40
Cc1nc2ccc(Oc3ccc4ncc(-c5cnn([C@H]6C[C@@H](O)C6)c5)nc4c3Cl)cc2[nH]1 [Compound 173] | pIC50 | 6.40 to 7.00
Cc1nc2ccc(Oc3ccc4ncc(-c5cnn([C@H](C)CO)c5)nc4c3Cl)cc2[nH]1 [Compound 126] | pIC50 | 6.40 to 7.00
Cc1nc2ccc(Oc3ccc4ncc(-c5cnn(CC6CCN(C)S(=O)(=O)C6)c5)nc4c3Cl)cc2[nH]1 (stereo not drawn) [Compound 240] | pIC50 | 6.40 to 7.00
C=CCn1cc(-c2cnc3ccc(Oc4ccc5nc(C)[nH]c5c4)c(Cl)c3n2)cn1 [Compound 347] | pIC50 | ≤ 6.40

----------
pIC50 values, listed per item
Tested on: DMS-114 (FGFR1 overexpression) cells
Assay: cell proliferation assay (CellTiterGlo), DMS-114 cells
Assay type: cell-based
Details: Homo sapiens, DMS-114, 72 h
pIC50: −log10 of the molar value.

COMPOUND | pIC50
Cc1nc2ccc(Oc3ccc4ncc(-c5cnn(CC6(O)CC(O)C6)c5)nc4c3Cl)c(F)c2[nH]1 (stereo not shown) | 7.00 to 7.70
Cc1nc2ccc(Oc3ccc4ncc(-c5cn(C6CCNCC6)nc5C)nc4c3Cl)cc2[nH]1 | 6.40 to 7.00
Cc1nc2ccc(Oc3ccc4ncc(-c5cnn(C6CN(CC(=O)N7CC(F)(F)C7)C6)c5)nc4c3Cl)cc2[nH]1 | ≤ 6.40
Cc1nc2ccc(Oc3ccc4ncc(-c5cnn(C6CCNC7(CC7)C6)c5)nc4c3Cl)cc2[nH]1 (stereo not shown) | 6.40 to 7.00
Cc1nc2ccc(Oc3ccc4ncc(-c5cnn(CC6CC(F)(F)C6)c5)nc4c3N3CCCC3=O)cc2[nH]1 | ≤ 6.40
Cc1nc2ccc(Oc3ccc4ncc(-c5cnn(CC6CS(=O)(=O)C6)c5)nc4c3Cl)cc2[nH]1 | ≤ 6.40
Cc1nc2ccc(Oc3ccc4ncc(-c5cnn([C@H]6C[C@H]7CC[C@@H](C6)N7C)c5)nc4c3Cl)cc2[nH]1 | 6.40 to 7.00

----------
Tested on: DMS-114 (FGFR1 overexpression) cells
Assay: cell proliferation assay (CellTiterGlo), DMS-114 cells
Format: cell-based
Settings: Homo sapiens, DMS-114, 72 h
IC50 values, listed per item

MOLECULE | IC50
Cc1nc2ccc(Oc3ccc4ncc(-c5cnn(CC6CCNCC6F)c5)nc4c3Cl)cc2[nH]1 (stereo not shown) | 100 to 400 nM
Cc1nc2ccc(Oc3ccc4ncc(-c5cnn(CCC6C=CCO6)c5)nc4c3Cl)cc2[nH]1 (stereo not shown) | ≥ 400 nM
Cc1nc2ccc(Oc3ccc4ncc(-c5cnn(CC(=O)N6CCOCC6)c5)nc4c3Cl)c(F)c2[nH]1 | 20 to 100 nM
Cc1nc2ccc(Oc3ccc4ncc(-c5cnn(CC6C7COCC76)c5)nc4c3Cl)cc2[nH]1 (stereo not shown) | ≥ 400 nM
Cc1nc2ccc(Oc3ccc4ncc(-c5cnn(CC6CC(F)(F)C6)c5C)nc4c3Cl)cc2[nH]1 | ≥ 400 nM
Cc1nc2ccc(Oc3ccc4ncc(-c5cnn(CC6CC(F)(F)C6)c5)nc4c3-n3ccnc3)c(F)c2[nH]1 | 100 to 400 nM
Cc1nc2ccc(Oc3ccc4ncc(-c5cnn(CC6CC7CC6CO7)c5)nc4c3Cl)cc2[nH]1 (stereo not shown) | 100 to 400 nM

The reported measurements were obtained from patent US20240368181A1.
